Source: paper PMC10716038

study_system: T1, THD1 Y395A (UniProt P26039 1-405, Y395A)
T1 construct: talin-1 (TLN1) head domain, residues 1-405, Y395A; source: E. coli (DE3) Rosetta 2, purified (IMAC, SEC); not shown: His10-SUMO, N-terminal, cleaved
T1 sequence (P26039 1-405 Y395A): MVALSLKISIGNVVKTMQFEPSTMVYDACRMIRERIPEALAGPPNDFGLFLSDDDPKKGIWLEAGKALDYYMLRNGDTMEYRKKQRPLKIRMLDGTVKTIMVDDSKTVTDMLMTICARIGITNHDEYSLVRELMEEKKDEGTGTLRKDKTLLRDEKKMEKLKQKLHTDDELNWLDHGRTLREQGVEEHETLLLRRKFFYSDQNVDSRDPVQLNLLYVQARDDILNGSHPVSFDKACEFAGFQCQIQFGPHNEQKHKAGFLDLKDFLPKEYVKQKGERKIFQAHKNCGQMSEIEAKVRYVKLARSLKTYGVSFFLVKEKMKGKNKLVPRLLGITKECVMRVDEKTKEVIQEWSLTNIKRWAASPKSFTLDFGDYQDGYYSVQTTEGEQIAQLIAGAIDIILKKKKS
protocol_details: MST; unlabelled protein titrated to 50-200 nM ATTO 488-labelled β-CT peptide, no third protein; 20 mM Tris pH 7.5, 200 mM NaCl, 1 mM TCEP, 0.05% Tween-20; Kd of individual titrations (in S0002 mean and sd, n = 2)
assay_context: both partners purified
No end group written: not given here.
measurement_type: Kd (µM)
Output spec: scalar in µM, unitless text.

query: I am curious: what Kd value has been reported for {ATTO 488}-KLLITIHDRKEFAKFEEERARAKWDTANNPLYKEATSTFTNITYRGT (peptide, UniProt O54890 741-787, looked up, integrin β3 cytoplasmic tail (β3-CT); source: synthetic peptide (MPIB Core Facility)) [ATTO 488-labeled integrin β3 cytoplasmic tail (488–β3-CT)] ?
result: 27.7
